Taken from patent US20250098679A1.

- System: Echinochloa crus-galli (ECHCG)
- EXPERIMENTAL_DETAILS: Post-emergence Test, Echinochloa crus-galli (ECHCG)
- Format: in vivo
- Design: key: 5=81-100%, 4=61-80%, 3=41-60%, 2=21-40%, 1=0-20% damage
- CONDITIONS_USED: 1000 g/ha, evaluated after 13 days
MEASUREMENT_NAME: percentage damage caused to the plant, ECHCG (five-point scale)

INPUT: Quick one: percentage damage caused to the plant, ECHCG (five-point scale) for CCn1c(Cn2cc(C(F)(F)F)cn2)cc(=O)c(C(=O)O)c1-c1ccc(Cl)c(Cl)c1 [Compound 6] ?
OUTPUT: 4 (4=61-80%)

INPUT: Quick one: percentage damage caused to the plant, ECHCG (five-point scale) for CCn1c(Cn2nc(C)cc2OC)cc(=O)c(C(=O)O)c1-c1ccc(Cl)c(Cl)c1 [Compound 127] ?
OUTPUT: 4 (4=61-80%)

INPUT: Quick one: percentage damage caused to the plant, ECHCG (five-point scale) for CCn1c(Cn2ccc(CC#N)n2)cc(=O)c(C(=O)O)c1-c1ccc(Cl)c(Cl)c1 [Compound 175] ?
OUTPUT: 2 (2=21-40%)

INPUT: Quick one: percentage damage caused to the plant, ECHCG (five-point scale) for CCOC(=O)c1c(-c2ccc(Cl)c(Cl)c2)n(CC)c(Cn2cnc(C#N)n2)cc1=O [Compound 54] ?
OUTPUT: 1 (1=0-20%)
